Reference for the values: ChEMBL document CHEMBL1141595

# subject_of_test: UniProt P23975
# Sequence (P23975 whole entry): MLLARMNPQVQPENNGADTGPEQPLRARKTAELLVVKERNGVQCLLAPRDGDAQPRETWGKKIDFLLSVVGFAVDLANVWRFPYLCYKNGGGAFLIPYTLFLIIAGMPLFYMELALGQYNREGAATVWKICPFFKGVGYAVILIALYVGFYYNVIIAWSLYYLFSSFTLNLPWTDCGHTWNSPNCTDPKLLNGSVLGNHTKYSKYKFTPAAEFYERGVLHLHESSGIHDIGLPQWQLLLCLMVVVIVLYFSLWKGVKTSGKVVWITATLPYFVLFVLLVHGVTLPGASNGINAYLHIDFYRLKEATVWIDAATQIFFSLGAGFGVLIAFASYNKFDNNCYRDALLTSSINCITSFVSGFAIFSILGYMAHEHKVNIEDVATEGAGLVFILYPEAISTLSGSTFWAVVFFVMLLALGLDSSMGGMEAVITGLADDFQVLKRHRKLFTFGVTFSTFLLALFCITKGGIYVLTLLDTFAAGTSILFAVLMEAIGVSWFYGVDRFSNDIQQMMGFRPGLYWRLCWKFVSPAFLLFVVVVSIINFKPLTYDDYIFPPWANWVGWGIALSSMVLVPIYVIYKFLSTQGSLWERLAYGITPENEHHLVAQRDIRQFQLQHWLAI
# assay_explanation: Inhibition of [3H]NA uptake at human NA transporter expressed in HEK293 cells
# maps each entry to its log10 IC50
Would you kindly interpret these values as log10 of IC50 expressed in nM?

The cases that follow already have their log10 IC50 on record.
cpd_smiles: CNCc1cc(NS(C)(=O)=O)ccc1Oc1ccc(Cl)cc1C
observable: log10 IC50
reading: 1.40
//
cpd_smiles: CNCc1cc(C(=O)N(C)C)ccc1Oc1ccc(Cl)cc1OC
observable: log10 IC50
reading: 1.51
//
cpd_smiles: CNCc1cc(N2CCCS2(=O)=O)ccc1Oc1ccc(Cl)cc1C
observable: log10 IC50
reading: 1.04
//
cpd_smiles: CNCc1ccccc1Oc1ccc(OC)cc1Cl
observable: log10 IC50
reading: 2.20
//
cpd_smiles: CNCc1cc(C(=O)NC)ccc1Oc1ccc(Cl)cc1Cl
observable: log10 IC50
reading: 1.58

Now consider the entry below.
INPUT: Please provide the recorded log10 IC50 for CN(C)Cc1ccccc1Oc1ccccc1Cl , tested on UniProt P23975.
OUTPUT: 1.18
